Data provenance: ChEMBL document CHEMBL4689842

# Tested on: Fibroblast
# protocolDescription: Multiplex assay against human fibroblast
# Assay type: toxicity, cell-based
# studyConditions: 48 h, 10 µM, compound concentration 10 uM, replicate 1
The following molecules are listed with their measured Population Tubulin-Different-Phenotype (%) values.

Check out these entries, answers already filled in.
- molecule: "Cc1csc2c(N[C@@H](C)CN3CCN(S(=O)(=O)c4ccc(Cl)c(Cl)c4)CC3)ncnc12"
  resultValue: "82%"
- molecule: "CN1CCC[C@@H]1CCO[C@](C)(c1ccccc1)c1ccc(Cl)cc1.O=C(O)/C=C/C(=O)O [CLEMASTINE FUMARATE]"
  resultValue: "83%"

Now turn to the next molecule.
Problem: What measured Population Tubulin-Different-Phenotype (%) goes with CN(C)C(=O)/C(C#N)=C/c1ccc(-c2nc3cnc4[nH]ccc4c3n2C2CCCCC2)o1 ?
Result: 57%

* * *

# Population Fragmented Nuclei (%) listing for each entry below
# Tested on: HEK-293T
# protocolDescription: Multiplex assay against HEK293T
# Format: toxicity, cell-based
# studyConditions: human, 12 h, 10 µM, compound concentration 10 uM, replicate 2
Kindly answer with a numeric value in %, unit omitted.

Some solved entries appear below for comparison.
- molecule: "CC(C)(O)CNc1ncc(-c2ccnc(Nc3ccnc(Cl)c3)n2)c(CC2CC2)n1"
  Population Fragmented Nuclei (%): 4
- molecule: "CN(C)C(=O)N[C@H]1CC[C@H](CCN2CCN(c3cccc(Cl)c3Cl)CC2)CC1.Cl [CARIPRAZINE HYDROCHLORIDE]"
  Population Fragmented Nuclei (%): 4
- molecule: "COc1cc(-n2cnc3cc(-c4ccc(Cl)cc4)sc3c2=O)ccc1OCCN1CCCC1"
  Population Fragmented Nuclei (%): 16
- molecule: "Cc1csc2c(N[C@@H](C)CN3CCN(S(=O)(=O)c4ccc(Cl)c(Cl)c4)CC3)ncnc12"
  Population Fragmented Nuclei (%): 5
- molecule: "O=C1NCN(c2ccccc2)C12CCN(CCCOc1ccc(F)cc1)CC2 [SPIRAMIDE]"
  Population Fragmented Nuclei (%): 3

Problem: Which Population Fragmented Nuclei (%) is listed for CN1CCCC(n2nc(Cc3ccc(Cl)cc3)c3ccccc3c2=O)CC1.Cl (stereo not drawn) [AZELASTINE HYDROCHLORIDE] ?
Result: 5

Problem: Please give the measured Population Fragmented Nuclei (%) for this molecule: Cc1nc(Nc2n[nH]c3c2CN(C(=O)N[C@H](CN(C)C)c2ccccc2)C3(C)C)c2sccc2n1
Result: 3

Problem: Suppose we examine the molecule Cn1cc(-c2[nH]c3cc(NC(=O)[C@H](N)C4CCCCC4)cc4c3c2C=NNC4=O)cn1 ; what Population Fragmented Nuclei (%) value has been reported?
Result: 6

* * *

# System: U2OS
# protocolDescription: Multiplex assay against U2OS
# Assay type: toxicity, cell-based
# studyConditions: human, 48 h, 1 µM, compound concentration 1 uM, replicate 1
readoutName: Population Pyknosed Nuclei (%)
Provide the reading as a plain figure in %.

- molecule: "COc1cccc([C@@H](C)NCCCc2ccccc2Cl)c1.Cl [TECALCET HYDROCHLORIDE]"
  readoutName: "Population Pyknosed Nuclei (%)"
  resultValue: 10
- molecule: "Cn1cc(-c2[nH]c3cc(NC(=O)[C@H](N)C4CCCCC4)cc4c3c2C=NNC4=O)cn1"
  readoutName: "Population Pyknosed Nuclei (%)"
  resultValue: 10
- molecule: "OC1(c2ccc(Cl)cc2)CCN(Cc2c[nH]c3ccccc23)CC1"
  readoutName: "Population Pyknosed Nuclei (%)"
  resultValue: 9
- molecule: "CC(C)NCC(O)COc1ccc(CCOCC2CC2)cc1.Cl (stereo unspecified) [BETAXOLOL HYDROCHLORIDE]"
  readoutName: "Population Pyknosed Nuclei (%)"
  resultValue: 10
- molecule: "Cc1cc(C)cc(-c2cnc3cc(Cl)c(-c4cccc(O)c4)cc3c2OCCCN)c1"
  readoutName: "Population Pyknosed Nuclei (%)"
  resultValue: 15
- molecule: "CC(C)(O)CNc1ncc(-c2ccnc(Nc3ccnc(Cl)c3)n2)c(CC2CC2)n1"
  readoutName: "Population Pyknosed Nuclei (%)"
  resultValue: 17

Problem: Please state recorded Population Pyknosed Nuclei (%) (tested on U2OS) of Cl.N#Cc1ccc2[nH]cc(CCCCN3CCN(c4ccc5oc(C(N)=O)cc5c4)CC3)c2c1 [VILAZODONE HYDROCHLORIDE]
Result: 12

Problem: Lab note: need Population Pyknosed Nuclei (%) with U2OS for entry Cc1csc2c(N[C@@H](C)CN3CCN(S(=O)(=O)c4ccc(Cl)c(Cl)c4)CC3)ncnc12 , please look it up.
Result: 11

Problem: Population Pyknosed Nuclei (%) of CN1CCC[C@@H]1CCO[C@](C)(c1ccccc1)c1ccc(Cl)cc1.O=C(O)/C=C/C(=O)O [CLEMASTINE FUMARATE] on U2OS?
Result: 10

Problem: GET /values?readout=Population Pyknosed Nuclei (%)&system=U2OS&item= O=C1NCN(c2ccccc2)C12CCN(CCCOc1ccc(F)cc1)CC2 [SPIRAMIDE]
Result: 4

Problem: Can you look up Population Pyknosed Nuclei (%) on U2OS for CN(C)C(=O)/C(C#N)=C/c1ccc(-c2nc3cnc4[nH]ccc4c3n2C2CCCCC2)o1 ?
Result: 6

* * *

# maps each entry to its Population Tubulin-Different-Phenotype (%)
# Test system: Fibroblast
# protocolDescription: Multiplex assay against human fibroblast
# Assay type: toxicity, cell-based
# studyConditions: 12 h, 1 µM, compound concentration 1 uM, replicate 1
Your answer should be a plain number; it is taken to be in %.

Observe how each entry below is paired with its result.
- compound: "C[C@@H](NCCCc1cccc(C(F)(F)F)c1)c1cccc2ccccc12.Cl [CINACALCET HYDROCHLORIDE]"
  unitString: "%"
  resultValue: 57
- compound: "COc1cccc([C@@H](C)NCCCc2ccccc2Cl)c1.Cl [TECALCET HYDROCHLORIDE]"
  unitString: "%"
  resultValue: 53
- compound: "CN(C)C(=O)N[C@H]1CC[C@H](CCN2CCN(c3cccc(Cl)c3Cl)CC2)CC1.Cl [CARIPRAZINE HYDROCHLORIDE]"
  unitString: "%"
  resultValue: 45
- compound: "CC(C)NCC(O)COc1ccc(CCOCC2CC2)cc1.Cl (configuration not stated) [BETAXOLOL HYDROCHLORIDE]"
  unitString: "%"
  resultValue: 39
- compound: "Cc1nc(-c2ccc(-c3ccc(C(=O)N4CCc5cc6c(cc54)C4(CCN(C)CC4)CO6)cc3)c(C)c2)no1 [SB-224289]"
  unitString: "%"
  resultValue: 75

Problem: Need Population Tubulin-Different-Phenotype (%) of C=CC(=O)Nc1cc2c(Nc3ccc(F)c(Cl)c3)ncnc2cc1OCCCN1CCOCC1.Cl.Cl [CANERTINIB DIHYDROCHLORIDE] , thanks.
Result: 83

Problem: Item under review: CN1CCC[C@@H]1CCO[C@](C)(c1ccccc1)c1ccc(Cl)cc1.O=C(O)/C=C/C(=O)O [CLEMASTINE FUMARATE] . Reported Population Tubulin-Different-Phenotype (%)?
Result: 37

* * *

# Test system: U2OS
# protocolDescription: Multiplex assay against U2OS
# Type: toxicity, cell-based
# studyConditions: human, 48 h, 10 µM, compound concentration 10 uM, replicate 1
Returns the class for an entry based on its Population Pyknosed Nuclei (%). Class ranges: A (below 40%), B (40% to below 50%), C (50% or more)

Field: example entries. Status: answers known.
- molecule: "Cn1cc(-c2[nH]c3cc(NC(=O)[C@H](N)C4CCCCC4)cc4c3c2C=NNC4=O)cn1"
  classLabel: "B"
- molecule: "Cc1[nH]c(/C=C2\\C(=O)Nc3ccc(S(=O)(=O)N(C)c4cccc(Cl)c4)cc32)c(C)c1C(=O)N1CCN(C)CC1"
  classLabel: "A"
- molecule: "COc1ncc(-c2ccc3nccc(-c4ccnnc4)c3c2)cc1NS(=O)(=O)c1ccc(F)cc1F"
  classLabel: "C"
- molecule: "O=C1NCN(c2ccccc2)C12CCN(CCCOc1ccc(F)cc1)CC2 [SPIRAMIDE]"
  classLabel: "B"
- molecule: "Cc1c(-c2ccc(O)cc2)n(Cc2ccc(OCCN3CCCCCC3)cc2)c2ccc(O)cc12"
  classLabel: "C"
- molecule: "CN1CCCC(n2nc(Cc3ccc(Cl)cc3)c3ccccc3c2=O)CC1.Cl (configuration not stated) [AZELASTINE HYDROCHLORIDE]"
  classLabel: "A"
- molecule: "Cc1csc2c(N[C@@H](C)CN3CCN(S(=O)(=O)c4ccc(Cl)c(Cl)c4)CC3)ncnc12"
  classLabel: "B"
- molecule: "CN1CCN(c2ccc(OC(F)(F)F)c(Nc3ncc4c(n3)-c3c(c(C(N)=O)nn3CCO)CC4)c2)CC1"
  classLabel: "A"

Problem: Determine which band this molecule sits in: Cl.N#Cc1ccc2[nH]cc(CCCCN3CCN(c4ccc5oc(C(N)=O)cc5c4)CC3)c2c1 [VILAZODONE HYDROCHLORIDE]
Result: C

Problem: Which class is correct for the following molecule? Cc1cc(C)cc(-c2cnc3cc(Cl)c(-c4cccc(O)c4)cc3c2OCCCN)c1
Result: C
